Data origin, for the record: patent US10000516B2

Reported IC50 values are given for each entry in this list.
target: Human Factor D (Homo sapiens); construct: purified from human serum; purchased Complement Technology, Inc; host or cells: human serum (natural protein, not recombinant); assay: Human Factor D assay (Z-L-Lys-SBzl/DTNB, absorbance at 405 nm); assay type: biochemical; details: Table 3; Human Factor D 80 nM, purified from human serum; substrate Z-L-Lys-SBzl; read-out: IC50 (Stars)
Sequence (P00746 26-253): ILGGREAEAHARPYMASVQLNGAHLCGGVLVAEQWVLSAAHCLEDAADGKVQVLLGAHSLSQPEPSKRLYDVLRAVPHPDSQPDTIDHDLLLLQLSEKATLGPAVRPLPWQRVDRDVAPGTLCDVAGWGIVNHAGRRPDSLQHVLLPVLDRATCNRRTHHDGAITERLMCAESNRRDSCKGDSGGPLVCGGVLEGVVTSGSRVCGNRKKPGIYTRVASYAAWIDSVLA

These recorded examples may help you get a feel for the data.
CCOP(=O)(OCC)c1ccc2c(c1)c(C(C)=O)cn2CC(=O)N1C[C@H](F)C[C@H]1C(=O)NCCCCc1ccccc1 [Compound 86] = > 10 µM
CCOP(=O)(OCC)c1ccc2c(c1)c(C(C)=O)cn2CC(=O)N1C[C@H](F)C[C@H]1C(=O)NCCCc1ccccc1 [Compound 82] = > 10 µM
CCOP(=O)(OCC)c1nc2c(s1)c(C(N)=O)nn2CC(=O)N1C[C@H](F)C[C@H]1C(=O)Nc1cccc(C)n1 [Compound 146] = > 10 µM
CC(=O)c1nn(CC(=O)N2C[C@H](F)C[C@H]2C(=O)Nc2cccc(Br)n2)c2cc(P(=O)(O)O)ccc12 [Compound 105] = < 1 µM
Cc1cccc(NC(=O)[C@@H]2[C@H]3CC[C@H](C3)N2C(=O)Cn2cc(C(N)=O)c3cc(P(=O)(O)O)ccc32)n1 [Compound 103] = > 10 µM

For the next question, use this molecule.
Item CCOP(=O)(OCC)c1ccc2c(c1)c(C(C)=O)cn2CC(=O)N1C[C@H](F)C[C@H]1CCNS(=O)(=O)c1ccccc1 [Compound 95] has what recorded IC50?
> 10 µM

###

target: Human Factor D (Homo sapiens); construct: purified from human serum; purchased Complement Technology, Inc; host or cells: human serum (natural protein, not recombinant); experiment: Human Factor D assay (Z-L-Lys-SBzl/DTNB, absorbance at 405 nm); format: biochemical; settings: Table 3; Human Factor D 80 nM, purified from human serum; substrate Z-L-Lys-SBzl; read-out: IC50 (Stars)
pIC50: −log10 of the molar value.
Experimental readout: pIC50

These recorded examples may help you get a feel for the data.
CCOP(=O)(OCC)c1ccc2c(c1)c(C(N)=O)cn2CC(=O)N1[C@@H]2CC[C@@H](C2)[C@H]1C(=O)Nc1cccc(C)n1 [Compound 102] = < 5.00
CCOP(=O)(OCC)c1nc2c(s1)c(C(N)=O)nn2CC(=O)N1[C@@H]2C[C@@H]2C[C@H]1C(=O)Nc1cccc(-c2cc(C(C)=O)ccc2Cl)c1F [Compound 104] = > 6.00
CCOP(=O)(OCC)c1nc2c(s1)c(C(N)=O)nn2CC(=O)N1C[C@H](F)C[C@H]1C(=S)NC1CCC(c2cc3sccc3s2)C1 (stereo partly shown) [Compound 148] = < 5.00

For the next question, use this compound.
Item CC(=O)c1cn(CC(=O)N2C[C@H](F)C[C@H]2C(=O)NCCCCc2ccccc2)c2ccc(P(=O)(O)O)cc12 [Compound 87] has what recorded pIC50?
< 5.00
